target-under-test: human orexin-2 receptor (hOX2R) (Homo sapiens (Human))
Sequence (O43614 whole entry): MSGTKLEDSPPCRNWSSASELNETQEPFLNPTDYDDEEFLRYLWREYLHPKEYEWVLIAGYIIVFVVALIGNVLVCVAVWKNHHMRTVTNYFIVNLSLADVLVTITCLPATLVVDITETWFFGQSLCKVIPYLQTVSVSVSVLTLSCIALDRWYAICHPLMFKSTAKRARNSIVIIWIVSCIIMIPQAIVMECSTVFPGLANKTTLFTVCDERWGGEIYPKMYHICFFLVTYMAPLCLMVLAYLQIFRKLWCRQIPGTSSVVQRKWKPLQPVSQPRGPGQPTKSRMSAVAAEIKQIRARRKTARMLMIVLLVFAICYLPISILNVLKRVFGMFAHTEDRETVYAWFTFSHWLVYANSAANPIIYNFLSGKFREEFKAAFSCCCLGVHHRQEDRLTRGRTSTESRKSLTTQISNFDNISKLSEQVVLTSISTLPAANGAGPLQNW
experiment-summary: FLIPR Ca2+ Flux Assay, CHO cells expressing human orexin-2 receptor
measurement-parameters: agonist Ala-6,12 human orexin-A 70 pM
measurement-name: IC50 (nM)

>>> reported_result("C[C@@H]1CC[C@@H](c2csc(C(C)(C)O)n2)CN1C(=O)c1ccccc1CS(C)(=O)=O")
40
>>> reported_result("C[C@@H]1CC[C@@H](c2nc([C@@H](O)C(F)(F)F)cs2)CN1C(=O)c1ccccc1-n1nccn1")
15
>>> reported_result("C[C@@H]1CC[C@@H](c2csc(C(C)(C)O)n2)CN1C(=O)c1ccsc1-n1nccn1")
16
>>> reported_result("Cc1sc([C@@H]2CC[C@@H](C)N(C(=O)c3cscc3-c3ncccn3)C2)nc1C(C)(C)O")
29
>>> reported_result("Cc1sc([C@@H]2CC[C@@H](C)N(C(=O)c3ccsc3-n3nccn3)C2)nc1C(C)(C)O")
12
>>> reported_result("C[C@@H]1CC[C@@H](c2nc([C@@H](O)C(F)F)cs2)CN1C(=O)c1ccccc1-n1nccn1")
133
>>> reported_result("Cc1sc([C@@H]2CC[C@@H](C)N(C(=O)c3ccccc3-n3ncnn3)C2)nc1C(C)(C)O")
19
>>> reported_result("Cc1sc([C@@H]2CC[C@@H](C)N(C(=O)c3ccccc3-n3nccn3)C2)nc1C(C)(C)O")
14

---

target-under-test: human orexin-1 receptor (hOX1R) (Homo sapiens (Human), UniProt O43613)
Sequence (O43613 whole entry): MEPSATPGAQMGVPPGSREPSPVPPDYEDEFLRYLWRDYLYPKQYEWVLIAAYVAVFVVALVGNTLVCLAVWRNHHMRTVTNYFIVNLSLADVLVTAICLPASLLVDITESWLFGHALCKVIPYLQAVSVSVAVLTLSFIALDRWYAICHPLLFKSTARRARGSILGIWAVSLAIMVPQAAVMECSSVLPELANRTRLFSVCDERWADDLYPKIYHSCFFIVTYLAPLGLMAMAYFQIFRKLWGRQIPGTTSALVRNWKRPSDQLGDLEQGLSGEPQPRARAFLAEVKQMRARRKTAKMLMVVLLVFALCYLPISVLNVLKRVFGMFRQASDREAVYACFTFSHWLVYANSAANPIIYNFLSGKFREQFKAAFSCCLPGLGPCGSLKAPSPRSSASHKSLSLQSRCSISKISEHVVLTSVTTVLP
experiment-summary: FLIPR Ca2+ Flux Assay, CHO cells expressing human orexin-1 receptor
measurement-parameters: agonist Ala-6,12 human orexin-A 70 pM
IC50 values for the compounds below.
measurement-name: IC50

>>> reported_result("Cc1sc([C@@H]2CC[C@@H](C)N(C(=O)c3ccsc3-n3nccn3)C2)nc1C(C)(C)O [Example 20]")
"970 nM"
>>> reported_result("C[C@@H]1CC[C@@H](c2nc(C(C)(C)O)cs2)CN1C(=O)c1ccccc1-n1ncnn1 [Example 14]")
"> 10000 nM"
>>> reported_result("C[C@@H]1CC[C@@H](c2nc([C@H](O)C(F)F)cs2)CN1C(=O)c1ccccc1-n1nccn1 [Example 9]")
"520 nM"
>>> reported_result("CCOC(=O)c1cnc([C@@H]2CC[C@@H](C)N(C(=O)c3ccccc3-n3nccn3)C2)s1 [Example 1]")
"> 10000 nM"
>>> reported_result("C[C@@H]1CC[C@@H](c2csc(C(C)(C)O)n2)CN1C(=O)c1ccc(F)cc1-n1nccn1 [Example 38]")
"2050 nM"
>>> reported_result("COC(=O)c1ccccc1C(=O)N1C[C@H](c2nc(C(C)(C)O)cs2)CC[C@H]1C [Example 12]")
"> 10000 nM"
>>> reported_result("Cc1sc([C@@H]2CC[C@@H](C)N(C(=O)c3ccccc3-n3nccn3)C2)nc1C(C)(C)O [Example 19]")
"330 nM"
>>> reported_result("C[C@@H]1CC[C@@H](c2nc(C(C)(C)O)cs2)CN1C(=O)c1ccsc1-c1ncccn1 [Example 18]")
"> 10000 nM"

---

pIC50 values for the compounds below.
target-under-test: human orexin-1 receptor (hOX1R) (Homo sapiens (Human))
experiment-summary: FLIPR Ca2+ Flux Assay, CHO cells expressing human orexin-1 receptor
measurement-parameters: agonist Ala-6,12 human orexin-A 70 pM
pIC50: −log10 of the molar value.
measurement-name: pIC50

>>> reported_result("C[C@@H]1CC[C@@H](c2csc(C(C)(C)O)n2)CN1C(=O)c1ccccc1CS(C)(=O)=O")
"< 5.00"
>>> reported_result("C[C@@H]1CC[C@@H](c2csc(C(C)(C)O)n2)CN1C(=O)c1cscc1-n1nccn1")
"< 5.00"
>>> reported_result("C[C@@H]1CC[C@@H](c2nc(C(C)(C)O)cs2)CN1C(=O)c1cscc1-n1nccn1")
"< 5.00"
